Reference for the values: paper PMC4681580

# system_name: T1, wild type rat TAP1/TAP2a complex (rat) (UniProt P36370)
# T1 sequence (P36370 whole entry, looked up): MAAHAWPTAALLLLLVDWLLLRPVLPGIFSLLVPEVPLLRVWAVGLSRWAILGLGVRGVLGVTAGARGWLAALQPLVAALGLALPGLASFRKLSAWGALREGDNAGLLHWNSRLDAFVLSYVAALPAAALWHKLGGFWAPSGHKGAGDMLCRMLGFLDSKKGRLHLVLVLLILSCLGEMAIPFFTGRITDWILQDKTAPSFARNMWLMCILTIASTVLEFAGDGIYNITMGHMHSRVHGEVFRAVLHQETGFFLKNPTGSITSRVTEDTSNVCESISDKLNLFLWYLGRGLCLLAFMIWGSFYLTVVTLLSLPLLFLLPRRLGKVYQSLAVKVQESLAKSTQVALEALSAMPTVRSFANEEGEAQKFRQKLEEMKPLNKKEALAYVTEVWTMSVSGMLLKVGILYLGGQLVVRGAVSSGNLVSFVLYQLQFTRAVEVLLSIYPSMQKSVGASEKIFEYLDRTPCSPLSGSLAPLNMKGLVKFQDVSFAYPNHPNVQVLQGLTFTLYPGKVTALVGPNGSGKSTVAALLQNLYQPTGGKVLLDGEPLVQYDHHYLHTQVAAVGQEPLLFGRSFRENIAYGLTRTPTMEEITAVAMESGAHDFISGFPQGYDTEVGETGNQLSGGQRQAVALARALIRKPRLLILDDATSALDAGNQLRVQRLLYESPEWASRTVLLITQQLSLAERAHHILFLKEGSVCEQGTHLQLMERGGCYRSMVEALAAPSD
# T1 sequence (P36372 whole entry, looked up): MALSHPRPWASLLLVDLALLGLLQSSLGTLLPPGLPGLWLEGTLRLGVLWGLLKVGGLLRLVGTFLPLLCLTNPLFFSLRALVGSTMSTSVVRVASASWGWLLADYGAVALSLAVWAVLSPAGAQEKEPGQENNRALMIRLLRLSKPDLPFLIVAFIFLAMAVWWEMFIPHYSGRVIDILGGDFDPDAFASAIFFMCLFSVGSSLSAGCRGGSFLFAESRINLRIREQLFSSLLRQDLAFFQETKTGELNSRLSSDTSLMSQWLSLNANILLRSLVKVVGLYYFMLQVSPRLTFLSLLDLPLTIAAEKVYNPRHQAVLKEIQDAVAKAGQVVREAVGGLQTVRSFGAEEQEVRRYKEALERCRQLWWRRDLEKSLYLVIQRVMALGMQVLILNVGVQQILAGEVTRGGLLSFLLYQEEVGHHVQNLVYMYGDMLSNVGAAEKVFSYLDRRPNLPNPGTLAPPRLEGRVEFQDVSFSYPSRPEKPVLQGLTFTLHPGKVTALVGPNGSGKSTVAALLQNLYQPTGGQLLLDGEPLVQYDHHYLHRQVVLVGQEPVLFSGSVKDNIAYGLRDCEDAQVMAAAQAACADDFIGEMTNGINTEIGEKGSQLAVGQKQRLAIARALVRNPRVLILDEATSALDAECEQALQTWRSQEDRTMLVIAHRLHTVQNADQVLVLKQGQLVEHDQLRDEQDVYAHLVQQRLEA
# test_name: cross-linking
pKd: −log10 of the molar value. Primed or numbered codes have the meaning given here. No end group written: not given here. FITC′ = fluorescein isothiocyanate
test_readout: pKd

[1] TVDNK(FITC′)CAYV [TVDNK*CAYV (TC6V), FITC-labeled]
[2] TVDNK(FITC′)CAYR [TVDNK*CAYR (TC6R), FITC-labeled]
Qu. Form field 'greater pKd' accepts 1 or 2 ; which applies? Answer = label.
Ans. 2
(2: 6.73, 1: 6.38)
